Molecular target: TANK-2 enzyme (Homo sapiens, UniProt Q9H2K2)
Construct: made in house
Sequence (Q9H2K2 1-1166): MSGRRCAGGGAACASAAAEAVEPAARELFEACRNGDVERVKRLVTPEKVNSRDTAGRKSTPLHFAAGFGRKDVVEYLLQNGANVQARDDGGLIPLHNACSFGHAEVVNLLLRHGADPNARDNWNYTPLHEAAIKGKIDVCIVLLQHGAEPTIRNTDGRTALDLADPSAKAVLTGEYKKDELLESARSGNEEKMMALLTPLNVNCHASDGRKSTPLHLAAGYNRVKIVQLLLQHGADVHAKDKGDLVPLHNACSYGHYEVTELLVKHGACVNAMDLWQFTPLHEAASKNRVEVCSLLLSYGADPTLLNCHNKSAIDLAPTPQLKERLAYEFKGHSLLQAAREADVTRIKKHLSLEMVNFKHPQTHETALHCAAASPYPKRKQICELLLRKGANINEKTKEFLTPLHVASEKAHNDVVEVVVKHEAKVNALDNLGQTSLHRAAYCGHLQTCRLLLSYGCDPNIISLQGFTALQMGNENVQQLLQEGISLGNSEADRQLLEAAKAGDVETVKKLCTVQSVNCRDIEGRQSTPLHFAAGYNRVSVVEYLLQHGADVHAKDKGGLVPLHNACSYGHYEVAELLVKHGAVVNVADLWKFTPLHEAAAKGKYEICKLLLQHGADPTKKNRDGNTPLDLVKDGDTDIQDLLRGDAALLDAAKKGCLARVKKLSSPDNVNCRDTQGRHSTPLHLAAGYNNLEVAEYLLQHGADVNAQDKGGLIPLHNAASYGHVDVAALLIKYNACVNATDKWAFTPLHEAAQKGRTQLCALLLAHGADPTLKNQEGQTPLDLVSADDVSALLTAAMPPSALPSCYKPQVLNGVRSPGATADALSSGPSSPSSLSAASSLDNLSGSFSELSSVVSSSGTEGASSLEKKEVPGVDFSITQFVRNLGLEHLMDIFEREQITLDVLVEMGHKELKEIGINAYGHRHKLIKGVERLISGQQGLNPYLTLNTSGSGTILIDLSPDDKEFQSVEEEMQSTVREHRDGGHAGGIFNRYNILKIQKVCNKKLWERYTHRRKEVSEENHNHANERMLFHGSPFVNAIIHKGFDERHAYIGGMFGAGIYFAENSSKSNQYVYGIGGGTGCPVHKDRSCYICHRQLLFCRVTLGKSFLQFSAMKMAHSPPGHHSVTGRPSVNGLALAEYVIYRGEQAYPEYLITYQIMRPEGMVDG
Test: In vitro Scintillation Proximity Assay (SPA) for TANK-2 inhibitory activity
Assay type: biochemical
Conditions: read-out: in vitro SPA assay TANK-2 pIC50 (converted)
quantity-measured: IC50 (nM)
Write the value in nM as a bare number.

Example results:
C#Cc1cccc(C[C@](C)(C#N)c2ccc3cc(CC)c(=O)[nH]c3c2)c1; 398
CCc1cc2ccc(C(C)(C#N)Cc3cccc(C(=O)OC(C)C)c3)cc2[nH]c1=O (stereo not shown); 794
CCc1cc2ccc(C(C)(C#N)Cc3c4ccccc4nn3C)cc2[nH]c1=O (stereo not shown); 200

# evaluate next
Lab book: IC50 of CCc1cc2ccc(C(C)(C#N)Cc3cc(C(F)(F)F)ccc3F)cc2[nH]c1=O (stereo not shown) noted as 398

* * *

Measured log10 of IC50, listed per entry for reference.
Target: TANK-2 enzyme (Homo sapiens, UniProt Q9H2K2)
Construct: made in house
Test: In vitro Scintillation Proximity Assay (SPA) for TANK-2 inhibitory activity
Format: biochemical
Conditions: read-out: in vitro SPA assay TANK-2 pIC50 (converted)
Would you kindly interpret these values as log10 of IC50 expressed in nM?

Example results:
CCc1cc2ccc(C(C)(C#N)Cc3cc(N(C)C)nc(C)n3)cc2[nH]c1=O (centres unmarked); 2.40
CCc1cc2ccc(C(C)(C#N)CNCc3ccc(C#N)cc3)cc2[nH]c1=O (centres unmarked); 2.00
CCC[C@@](C#N)(Cc1ccccc1)c1ccc2cc(CC)c(=O)[nH]c2c1 (single isomer, unassigned); 3.30
CCc1cc2ccc(C(C)(C#N)Cc3cc(C)cc(Br)c3)cc2[nH]c1=O (centres unmarked); 2.70

Lab book: log10 of IC50 of CCc1cc2ccc(C(C)(C#N)CCOc3nccc(OC)n3)cc2[nH]c1=O (centres unmarked) noted as 2.90

Lab book: log10 of IC50 of CCc1cc2ccc(C(C)(C#N)Cc3cccc(C#N)n3)cc2[nH]c1=O (centres unmarked) [Compound 329] noted as 2.50

Lab book: log10 of IC50 of CCc1cc2ccc(C(C)(C#N)Cc3ccc4c(c3)OC(F)(F)O4)cc2[nH]c1=O (centres unmarked) noted as 2.70
